Quick reference for z-score among some molecules
- measurement.notes: compound effects on lung adenocarcinoma cell viability – A549, calcein-AM fluorescence, 48 h, basal, profiling panel (AID 1162); further: test concentration not given here
- experimental.conditions: higher = more signal
parameter: z-score

# molecule, parameter, assay.value
records = [
    ("CCCCN1CC=CC23O[C@@H]4/C=C\\CCCOC(=O)C4[C@H]2C(=O)N(CCCCCO)[C@@H]3C1=O (stereo partly specified)", "z-score", -0.234),
    ("O=C1O[C@H](c2ccccc2)[C@H](c2ccccc2)N2[C@H]1[C@@H](C(=O)NC[C@H](O)c1ccccc1)[C@]1(C(=O)Nc3ccc(C#CC4=CCCCC4)cc31)[C@H]2c1ccccc1OCCO", "z-score", -2.45),
    ("COc1ccc(C#Cc2ccc3c(c2)[C@]2(C(=O)N3)[C@H](c3ccc(O)cc3)N3[C@H](c4ccccc4)[C@H](c4ccccc4)OC(=O)[C@H]3[C@@H]2C(=O)N2CCc3cc(OC)c(OC)cc3C2)cc1", "z-score", -0.258),
    ("CC(C)=CCCC(C)=CC(O)C1C=CC2C(=O)N(c3ccccc3)C(=O)C2N1Nc1ccc(C(C)C)cc1 (stereo unspecified)", "z-score", -1.27),
    ("CC1CC/C=C\\[C@H]2OC34C=CCN(c5ccc6ccccc6c5)C(=O)[C@H]3N(CCO)C(=O)[C@@H]4C2C(=O)O1 (stereo partly specified)", "z-score", -0.099),
    ("COCCCNC(=O)[C@@]1(Cc2ccccc2CN=[N+]=[N-])N=C(c2ccc(OCCCO)cc2)O[C@H]1c1ccccc1CN=[N+]=[N-]", "z-score", -0.768),
]

###

- measurement.notes: compounds binding Alexa647 anti-His antibody – biochemical, small-molecule microarray, 635 nm fluorescence, artefact control for SMM control protein annotation, primary screen (AID 1128);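 further: score merges feature fluorescence with signal-to-noise for each printed compound spot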
- experimental.conditions: higher = more signal
parameter: composite z-score

# molecule, parameter, assay.value
data = [
    ("COc1ccc([Si](C)(C)[C@H]2[C@H](CCn3cc([C@H](O)c4ccccc4)nn3)O[C@@]3(C(=O)N(C)c4ccccc43)[C@@H]2C)cc1", "composite z-score", -0.0799),
    ("COCCOC(=O)N1C(=O)[C@@]2(c3cc(C#CC4(O)CCCCCC4)ccc31)[C@H](C(=O)Nc1nc3ccccc3s1)[C@H]1C(=O)O[C@H](c3ccccc3)[C@H](c3ccccc3)N1[C@@H]2c1ccc(OCCO)cc1", "composite z-score", 0.553),
    ("C=CCNC(=O)[C@H]1[C@@H]2C(=O)O[C@@H](c3ccccc3)[C@@H](c3ccccc3)N2[C@@H](c2ccc(O)cc2)[C@]12C(=O)Nc1ccc(C#CCCO)cc12", "composite z-score", -0.0591),
    ("COCCOC(=O)N1C(=O)[C@@]2(c3cc(C#CC4=CCCCC4)ccc31)[C@H](C(N)=O)[C@H]1C(=O)O[C@H](c3ccccc3)[C@H](c3ccccc3)N1[C@@H]2c1ccc(O)cc1", "composite z-score", 0.753),
    ("COC(=O)[C@@]1(Cc2ccccc2)[C@H]2c3cc(C(=O)N4CCCC4)n(Cc4ccc(O)c(OC)c4)c3C[C@H]2CN1C(=O)c1ccccc1", "composite z-score", 0.882),
    ("CCOC(=O)C[C@H]1[C@H](OC(=O)c2cc3ccccc3oc2=O)[C@@H](NC(=O)CC(C)C)c2cc(OCCCO)ccc2N1C(=O)c1ccccc1", "composite z-score", 0.615),
    ("CC[C@@H]1C=C(C(=O)O)[C@H](c2cccc3ccccc23)N1S(=O)(=O)c1ccc(C)cc1", "composite z-score", 1.18),
    ("O=C1C2C=CC(C(O)c3c(F)cccc3Cl)N(Nc3ccccc3F)C2C(=O)N1c1ccccc1 (centres undefined)", "composite z-score", 0.236),
    ("COC(=O)[C@]1(CCC(=O)OC(C)(C)C)N=C(c2ccc(OCCCO)cc2)O[C@@H]1c1ccccc1", "composite z-score", 2.76),
    ("CC(C)C(=C=CC[C@H](O)c1ccc(CO)o1)CCO", "composite z-score", 0.748),
    ("COCC(=C=CC[C@H](O)c1ccccc1OCCO)CCO", "composite z-score", -0.69),
    ("COC(=O)c1c(CC[C@@H](CO)NC(=O)N[C@@H](Cc2ccccc2)Cn2cc(-c3ccccn3)nn2)oc(C(=O)N2CCOCC2)c1C(=O)OC", "composite z-score", -0.241),
    ("CCN(CC)c1ccc(N2CC=CC34O[C@@H]5/C=C\\CCC(C)OC(=O)C5[C@H]3C(=O)N(CCCCCO)[C@@H]4C2=O)cc1 (some centres undefined)", "composite z-score", -0.117),
    ("CN(C)CCCCCCNC(=O)[C@@H]1C[C@@H]2C(=O)N3CCC[C@H]3C(=O)N2[C@@H]1c1ccc(O)cc1", "composite z-score", 3.06),
]

###

- study.system: Pro-neuregulin-1, membrane-bound isoform (Homo sapiens) (UniProt Q02297)
- Sequence (Q02297 whole entry, looked up, canonical isoform): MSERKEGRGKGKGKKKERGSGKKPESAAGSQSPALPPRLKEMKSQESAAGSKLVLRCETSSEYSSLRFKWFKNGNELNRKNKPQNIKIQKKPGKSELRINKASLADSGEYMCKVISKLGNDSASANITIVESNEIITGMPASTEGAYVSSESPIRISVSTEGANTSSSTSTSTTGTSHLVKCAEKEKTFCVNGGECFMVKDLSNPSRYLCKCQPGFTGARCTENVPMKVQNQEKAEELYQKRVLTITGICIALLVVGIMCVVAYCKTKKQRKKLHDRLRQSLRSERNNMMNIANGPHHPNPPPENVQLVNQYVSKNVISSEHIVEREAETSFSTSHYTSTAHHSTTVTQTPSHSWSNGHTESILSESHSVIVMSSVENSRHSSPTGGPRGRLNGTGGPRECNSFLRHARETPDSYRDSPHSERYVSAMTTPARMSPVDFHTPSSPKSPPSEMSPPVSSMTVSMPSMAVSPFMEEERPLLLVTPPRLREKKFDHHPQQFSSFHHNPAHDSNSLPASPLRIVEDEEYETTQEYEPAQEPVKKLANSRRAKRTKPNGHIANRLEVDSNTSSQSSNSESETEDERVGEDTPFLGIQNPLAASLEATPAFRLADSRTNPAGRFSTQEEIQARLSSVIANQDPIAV
- measurement.notes: small molecules binding neuregulin-1 protein – biochemical, small-molecule microarray, fluorescence 635/667, psychiatric disease protein project, primary screen (AID 1075);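 further: score combines 667 nm spot fluorescence with signal to noise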
- experimental.conditions: NRG1 binding, 635 nm fluorescence, higher = more signal
Label scheme for composite z-score: lower than 0.2 is Not satisfied, 0.2 and above is Satisfied.

# molecule, group.label
rows = [
    ("CO[C@H]1O[C@H](CO)[C@@H](OC(=O)Nc2ccccc2)[C@@H]2OC(=O)[C@@H](Cc3ccc4ccccc4c3)C/C=C/C[C@H](Cc3ccc4ccccc4c3)C(=O)O[C@@H]12", "Satisfied"),
    ("C=C(C)[C@@H]1CC=C(C(O)C2C=CC3C(=O)NC(=O)C3N2Nc2ccc(Cl)cc2Cl)CC1 (stereo partly drawn)", "Satisfied"),
    ("CCCCC(=C=CC[C@H](O)c1cccc(OCCO)c1)C[C@H](O)c1ccccn1", "Not satisfied"),
    ("CC(=O)NCCCC[C@@H]1NC(=O)[C@H]2C[C@@H](C(=O)NCCCCCNC(=O)CS)[C@@H](c3ccc(O)cc3)N2C1=O", "Not satisfied"),
    ("C=CCN(Cc1ccccc1)C(=O)C(c1cccs1)N(C(=O)/C=C\\C(=O)O)c1ccc(CCOCCO)cc1 (stereo not drawn)", "Satisfied"),
    ("CC(C)Cc1ccc(CN2CC[C@@H](N)C2)cc1", "Not satisfied"),
    ("COCCOC(=O)N1C(=O)[C@@]2(c3cc(C#CCCO)ccc31)[C@H](c1ccc(O)cc1)N1[C@H](c3ccccc3)[C@H](c3ccccc3)OC(=O)[C@H]1[C@@H]2C(=O)N1CCN(c2ncccn2)CC1", "Satisfied"),
    ("CC(C)[Si](C#C[Si](C(C)C)(C(C)C)C(C)C)(O[C@H](C)c1cn(Cc2ccccc2)nn1)C(C)C", "Satisfied"),
]

###

Quick reference for z-score among some molecules
- measurement.notes: inhibition of PAO1 biofilm formation – strain PAO1, LB-PBS medium, absorbance 600 nm, primary screen (AID 1176); further: test concentration not given here
- experimental.conditions: P. aeruginosa PAO1 growth/biofilm, A600, 12 h; higher = more signal

# molecule, z-score
measured = [
    ("COc1ccc([C@H]2C[C@H]3C(I)=C[C@@H]2C(=O)[C@]32CO2)cc1", 0.167),
    ("COC(=O)c1c(CC[C@@H](CO)NC(=O)N[C@H](Cc2ccccc2)Cn2cc(-c3ccccn3)nn2)oc(C(C)=O)c1C(=O)OC", -0.0149),
    ("COc1ccc(CCNC(=O)[C@@]2(C)c3ccccc3C(=O)N(c3ccc(C)cn3)[C@H]2c2ccc(CO)cc2)cc1", -0.301),
    ("O=C1OCCC/C=C\\[C@H]2OC34C=CCN(c5ccc6ccccc6c5)C(=O)[C@H]3N(CCCCCO)C(=O)[C@@H]4C12 (some centres undefined)", -0.649),
    ("CC(C)[Si](C#CCCCC#N)(Oc1ccccc1Br)C(C)C", 0.313),
    ("CC(C)[Si](C#C[Si](C(C)C)(C(C)C)C(C)C)(O[C@H](C)c1cn(Cc2ccccc2)nn1)C(C)C", 0.419),
    ("CCCCC(O)C1C=CC2C(=O)N(C)C(=O)C2N1N1CCCCC1 (centres undefined)", 0.971),
    ("COc1ccc([Si](C)(C)[C@@H]2[C@@H](CC(=O)N3Cc4ccccc4C[C@H]3CO)O[C@]3(C(=O)N(Cc4cccc(N5CCC5=O)c4)c4ccccc43)[C@H]2C)cc1", 2.04),
    ("CC=CC(O)C1C=CC2C(=O)N(C)C(=O)C2N1N(c1ccccc1)c1ccccc1 (centres undefined)", -0.531),
    ("O=C1[C@H]2C=C(I)[C@H](C[C@@H]2OCCCCO)[C@@]12CO2", 0.13),
    ("COCCOC(=O)N1C(=O)[C@@]2(c3ccccc31)[C@H](C(=O)N1CCCCCCC1)[C@H]1C(=O)O[C@H](c3ccccc3)[C@H](c3ccccc3)N1[C@@H]2c1ccc(OCCO)cc1", 2.29),
    ("C=CC[C@]1(C(=O)NCc2ccccc2)N=C(c2ccc(OCCCO)cc2)O[C@H]1c1ccccc1CN=[N+]=[N-]", 1.06),
    ("COCCOC(=O)N1C(=O)[C@@]2(c3cc(C#CC4(O)CCCCCC4)ccc31)[C@H](C(=O)Nc1nc3ccccc3s1)[C@H]1C(=O)O[C@H](c3ccccc3)[C@H](c3ccccc3)N1[C@@H]2c1ccccc1OCCO", 0.249),
    ("[N-]=[N+]=Nc1ccccc1C[C@]1(C(=O)N2CCCCC2)COC(c2ccc(OCCCO)cc2)=N1", -0.248),
    ("O=C1O[C@@H](c2ccccc2)[C@@H](c2ccccc2)N2[C@@H](c3ccccc3OCCO)[C@]3(C(=O)Nc4ccc(C#CC5(O)CCCCCC5)cc43)[C@@H](C(=O)N3CCN(c4ncccn4)CC3)[C@H]12", 1.94),
    ("O=C1N(CCS(=O)(=O)c2ccccc2)c2ccccc2[C@@H]2OC(c3ccc(OCCCO)cc3)=N[C@]12Cc1ccccc1", 0.755),
    ("C=C(CCCC)C(=O)CC[C@@H](OC(C)=O)c1ccc(CO)o1", 1.27),
    ("C=CCNC(=O)[C@H]1[C@@H]2C(=O)O[C@@H](c3ccccc3)[C@@H](c3ccccc3)N2[C@@H](c2ccc(OCCO)cc2)[C@]12C(=O)Nc1ccc(C#CCC(C(=O)OC)C(=O)OC)cc12", 2.63),
    ("COc1ccc([Si](C)(C)[C@@H]2[C@@H](CCn3cc([C@H](O)c4ccccc4)nn3)O[C@]3(C(=O)N(Cc4cccc(N5CCC5=O)c4)c4ccccc43)[C@H]2C)cc1", 2.05),
    ("O=C(O)C1N=C(c2ccc(OCCCO)cc2)N(c2ccccc2)O1 (centres undefined)", -0.469),
    ("O=C1C2C=CC(C(O)c3c(F)cccc3Cl)N(Nc3ccccc3F)C2C(=O)N1c1ccccc1 (centres undefined)", 0.447),
    ("CO[C@H]1O[C@H](CO)[C@@H](OC(=O)Nc2ccc(Oc3ccccc3)cc2)[C@H](OC(=O)Nc2ccc3c(c2)OCO3)[C@@H]1OC(=O)Nc1ccc2c(c1)OCO2", 1.39),
    ("O=C(O)[C@@]1(CCS(=O)(=O)c2ccccc2)N=C(c2ccc(OCCCO)cc2)O[C@H]1c1ccccc1", -1.27),
    ("CC(C)=CCCC(C)=CC(O)C1C=CC2C(=O)N(c3ccccc3)C(=O)C2N1Nc1ccc(C(C)C)cc1 (centres undefined)", 0.0616),
    ("COc1ccccc1CN1C(=O)c2ccccc2[C@@H](C(=O)NCc2ccccc2)[C@@H]1c1ccc(CO)cc1", -0.0528),
    ("CCCC1(C(=O)OC)C=C2C(=C(c3ccccc3)C(=O)C2C)CN1 (centres undefined)", 0.246),
    ("COc1ccc([Si](C)(C)[C@@H]2[C@@H](CCn3cc(CCO)nn3)O[C@]3(C(=O)N(Cc4cccc(N5C(=O)c6cccc7cccc5c67)c4)c4ccccc43)[C@H]2C)cc1", -0.459),
    ("COCCCNC(=O)[C@]1(Cc2ccccc2)N=C(c2ccc(OCCCO)cc2)O[C@@H]1c1ccccc1CN=[N+]=[N-]", 1.8),
    ("COCCOC(=O)N1C(=O)[C@@]2(c3cc(C#CC4=CCCCC4)ccc31)[C@H](C(N)=O)[C@H]1C(=O)O[C@H](c3ccccc3)[C@H](c3ccccc3)N1[C@@H]2c1ccc(O)cc1", 1.37),
]
